ASSAYED SYSTEM: T1, human CDH6 on tumor cells (OVCAR3 cells, PA-1 cells) (human, UniProt P55285 54-790)
T1 sequence: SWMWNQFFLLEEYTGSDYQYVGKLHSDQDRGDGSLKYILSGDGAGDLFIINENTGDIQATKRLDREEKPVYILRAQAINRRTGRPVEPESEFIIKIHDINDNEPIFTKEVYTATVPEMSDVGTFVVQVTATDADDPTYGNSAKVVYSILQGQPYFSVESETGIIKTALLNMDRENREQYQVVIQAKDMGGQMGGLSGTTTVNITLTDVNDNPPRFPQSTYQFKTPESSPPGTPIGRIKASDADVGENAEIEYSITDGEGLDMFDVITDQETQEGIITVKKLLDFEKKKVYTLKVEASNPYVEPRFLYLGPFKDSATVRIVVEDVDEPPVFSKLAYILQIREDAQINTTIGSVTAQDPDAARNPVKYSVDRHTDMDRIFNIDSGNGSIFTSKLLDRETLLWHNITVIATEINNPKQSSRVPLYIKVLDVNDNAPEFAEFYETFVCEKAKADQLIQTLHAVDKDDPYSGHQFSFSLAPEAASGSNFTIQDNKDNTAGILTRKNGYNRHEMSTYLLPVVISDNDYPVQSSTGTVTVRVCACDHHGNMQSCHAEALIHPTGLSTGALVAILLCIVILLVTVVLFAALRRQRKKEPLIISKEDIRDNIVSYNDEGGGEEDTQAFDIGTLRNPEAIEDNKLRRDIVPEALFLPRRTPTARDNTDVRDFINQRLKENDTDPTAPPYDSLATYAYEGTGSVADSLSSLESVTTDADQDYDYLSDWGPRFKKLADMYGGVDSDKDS
TEST PROTOCOL: FACS, OVCAR3 cells, 4° C. arm of endocytosis assay
MEASURED ATTRIBUTE: MFI_4° C.

Dear colleague, I am looking for the recorded MFI_4° C. of the following binder: NOV0712 (antibody, human IgG1, kappa, V domains shown, Positive control, variable regions from WO2018212136A1; also called positive control anti-human CDH6 antibody) VH: QVQLLESGGGLVQPGGSLRLSCAASGFTFSSHGMHWVRQAPGKGLEWVSVISGSGSNTGYADSVKGRFTISRDNSKNTLYLQMNSLRAEDTAVYYCARQWGSYAFDSWGQGTLVTVSS VL: DIQMTQSPSSLSASVGDRVTITCRASQSISSYLNWYQQKPGKAPKLLIYAVSTLQSGVPSRFSGSGSGTDFTLTISSLQPEDFATYYCQQSGTFPPTTFGQGTKVEIKR
13600 MFI

Moving on to the next binder: hCDH6-1-H2L3 (antibody, V domains shown, Humanized) VH: EVQLVQSGAEVKKPGSSVKVSCKASGYTFTNYWMHWVRQAPGQGLEWMGDIDPSHSETHYTQKFKDRVTITVDKSTSTAYMELSSLRSEDTAVYYCARGDLGRFDYWGQGTTVTVSS VL: DIQMTQSPSSLSASVGDRVTITCRASESVSIHGTHLMHWYQQKPGKPPKLLIYAASNLESGVPSRFSGSGSETDFTFTISSLQPEDIATYYCQQSFEDPWTFGGGTKVEIK
20200 MFI

Moving on to the next binder: hCDH6-6-H2L2 (antibody, V domains shown, Humanized) VH: EVQLVQSGAEVKKPGASVKVSCKASGYTFTDYYMAWVRQAPGQGLEWMGYIFPNSGGTDYSQKFKGRVTLTVDKSTSTVYMELSSLRSEDTAVYYCARELGADYGDYYAMDHWGQGTTVTVSS VL: DIQMTQSPSSLSASVGDRVTITCRASENIDSYLAWYQQKPGKSPKLLVYSATLLADGVPSRFSGSGSGTDYTLTISSLQPEDFATYYCQHYYRTPPTFGQGTKLEIK
20500 MFI
